Target or system Mu-type opioid receptor (Homo sapiens, UniProt P35372): recorded AC50 listed per item. Further: assay procedure not described here.

compound="[H]/N=C(/N)N[C@H]1[C@H](O)[C@@H](O)[C@H](O[C@@H]2O[C@@H](C)[C@](O)(C=O)[C@H]2O[C@@H]2O[C@@H](CO)[C@H](O)[C@@H](O)[C@@H]2NC)[C@@H](N/C(N)=N\\[H])[C@@H]1O [STREPTOMYCIN]" readout_name=AC50 test_result="> 10 µM"
compound="O=C1CN=C(c2ccccc2)c2cc(Cl)ccc2N1 [NORDAZEPAM]" readout_name=AC50 test_result="> 10 µM"

## Input // fetch Mu-type opioid receptor (Homo sapiens, UniProt P35372) AC50 for O=C(O)c1ccccc1Nc1cccc(C(F)(F)F)c1 [FLUFENAMIC ACID]
## Output > 30 µM

## Input // fetch Mu-type opioid receptor (Homo sapiens, UniProt P35372) AC50 for Cn1c(=O)c2[nH]cnc2n(C)c1=O [THEOPHYLLINE]
## Output > 30 µM

## Input // fetch Mu-type opioid receptor (Homo sapiens, UniProt P35372) AC50 for C[C@H]1Oc2cc(cnc2N)-c2c(nn(C)c2C#N)CN(C)C(=O)c2ccc(F)cc21 [LORLATINIB]
## Output > 30 µM

* * *

The reader will find reported AC50 values listed item by item below.
Target: Sodium-dependent noradrenaline transporter (Homo sapiens, UniProt P23975); further: assay procedure not described here
Sequence (P23975 whole entry): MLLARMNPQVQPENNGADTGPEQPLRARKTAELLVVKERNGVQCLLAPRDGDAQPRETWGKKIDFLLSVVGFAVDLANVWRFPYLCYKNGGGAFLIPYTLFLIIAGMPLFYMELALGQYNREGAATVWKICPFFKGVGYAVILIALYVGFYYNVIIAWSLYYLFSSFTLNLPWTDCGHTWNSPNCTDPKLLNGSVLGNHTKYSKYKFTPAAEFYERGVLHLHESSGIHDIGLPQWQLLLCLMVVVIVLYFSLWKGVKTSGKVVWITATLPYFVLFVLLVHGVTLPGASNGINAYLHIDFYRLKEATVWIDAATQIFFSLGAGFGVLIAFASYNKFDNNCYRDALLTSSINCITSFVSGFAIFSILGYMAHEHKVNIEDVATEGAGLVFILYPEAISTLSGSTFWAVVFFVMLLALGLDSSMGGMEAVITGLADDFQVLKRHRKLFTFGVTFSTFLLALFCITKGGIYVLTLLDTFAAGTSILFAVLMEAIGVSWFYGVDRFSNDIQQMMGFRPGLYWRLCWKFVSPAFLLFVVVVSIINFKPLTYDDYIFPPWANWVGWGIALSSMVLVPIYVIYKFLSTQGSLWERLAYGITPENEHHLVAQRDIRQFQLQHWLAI

Before answering, review these 5 worked examples.
compound=CC(C)(N)C(=O)N[C@H](Cc1c[nH]c2ccccc12)C(=O)N[C@H](Cc1c[nH]c2ccccc12)NC=O target_system="Sodium-dependent noradrenaline transporter (Homo sapiens, UniProt P23975)" readout_name=AC50 test_result="> 30 µM"
compound=CN(C)C(=O)c1nc(CNC(=O)CN)n(-c2ccc(Cl)cc2C(=O)c2ccccc2Cl)n1 target_system="Sodium-dependent noradrenaline transporter (Homo sapiens, UniProt P23975)" readout_name=AC50 test_result="> 30 µM"
compound=CNC[C@H](O)c1cccc(O)c1 target_system="Sodium-dependent noradrenaline transporter (Homo sapiens, UniProt P23975)" readout_name=AC50 test_result="> 30 µM"
compound=N=C(N)NCc1cccc([123I])c1 target_system="Sodium-dependent noradrenaline transporter (Homo sapiens, UniProt P23975)" readout_name=AC50 test_result="8.75 µM"
compound=CN1CCC[C@@H]1Cc1c[nH]c2ccc(CCS(=O)(=O)c3ccccc3)cc12 target_system="Sodium-dependent noradrenaline transporter (Homo sapiens, UniProt P23975)" readout_name=AC50 test_result="17.8 µM"

## Input Need AC50 of CC(N)CCCC(C)(C)O (stereo not drawn) , thanks.
## Output > 30 µM

## Input Need AC50 of C[C@H]1O[C@@H](O[C@H]2[C@@H](O)C[C@H](O[C@H]3[C@@H](O)C[C@H](O[C@H]4CC[C@@]5(C)[C@H](CC[C@@H]6[C@@H]5CC[C@]5(C)[C@@H](C7=CC(=O)OC7)CC[C@]65O)C4)O[C@@H]3C)O[C@@H]2C)C[C@H](O)[C@@H]1O , thanks.
## Output > 30 µM

## Input Need AC50 of O=C(Oc1ccccc1C(=O)O)c1ccccc1O [SALSALATE] , thanks.
## Output > 30 µM

* * *

Target or system Cholecystokinin receptor type A (Homo sapiens): recorded AC50 listed per item. Further: assay procedure not described here.

compound=COc1cccc2c1C(=O)c1c(O)c3c(c(O)c1C2=O)C[C@@](O)(C(C)=O)C[C@@H]3O[C@H]1C[C@H](N)[C@H](O)[C@H](C)O1 target_system="Cholecystokinin receptor type A (Homo sapiens)" test_result="24 µM"
compound=CCCC[C@H](C)C[C@H](O)/C=C/[C@H]1[C@H](O)CC(=O)[C@@H]1CCCC/C=C/C(=O)O target_system="Cholecystokinin receptor type A (Homo sapiens)" test_result="> 30 µM"
compound=OCCN1CCN(CC/C=C2/c3ccccc3Sc3ccc(Cl)cc32)CC1 target_system="Cholecystokinin receptor type A (Homo sapiens)" test_result="> 10 µM"

## Input // fetch Cholecystokinin receptor type A (Homo sapiens) AC50 for C=CC(N)CCC(=O)O (centres undefined)
## Output > 10 µM

## Input // fetch Cholecystokinin receptor type A (Homo sapiens) AC50 for C=CC1=C(C(=O)O)N2C(=O)[C@@H](NC(=O)/C(=N\OCC(=O)O)c3csc(N)n3)[C@H]2SC1
## Output > 30 µM

## Input // fetch Cholecystokinin receptor type A (Homo sapiens) AC50 for CCCN(CCC)CCc1cccc2c1CC(=O)N2
## Output > 30 µM

## Input // fetch Cholecystokinin receptor type A (Homo sapiens) AC50 for O=C1CN2Cc3c(ccc(Cl)c3Cl)N=C2N1 [ANAGRELIDE]
## Output > 30 µM

## Input // fetch Cholecystokinin receptor type A (Homo sapiens) AC50 for Nc1nc(O)c2ncn(COC(CO)CO)c2n1
## Output > 30 µM

## Input // fetch Cholecystokinin receptor type A (Homo sapiens) AC50 for C=C(C)[C@@H]1CCC(C)=C[C@H]1c1c(O)cc(CCCCC)cc1O
## Output 18.3 µM
